Value source: ChEMBL document CHEMBL1148529

The listing below reports Ki for molecules tested on UniProt:P0C6U8.
Value expressed in µM; do not type the unit.

{"structure smiles": "CN1C(=O)C(=O)c2cc(C(N)=O)ccc21", "readout kind": "Ki", "obs value": 71}

Entry "O=C1C(=O)N(Cc2ccccc2)c2ccc(I)cc21" ; Ki = 50

====

Target: Papain (Carica papaya, UniProt P00784)
Sequence (P00784 whole entry): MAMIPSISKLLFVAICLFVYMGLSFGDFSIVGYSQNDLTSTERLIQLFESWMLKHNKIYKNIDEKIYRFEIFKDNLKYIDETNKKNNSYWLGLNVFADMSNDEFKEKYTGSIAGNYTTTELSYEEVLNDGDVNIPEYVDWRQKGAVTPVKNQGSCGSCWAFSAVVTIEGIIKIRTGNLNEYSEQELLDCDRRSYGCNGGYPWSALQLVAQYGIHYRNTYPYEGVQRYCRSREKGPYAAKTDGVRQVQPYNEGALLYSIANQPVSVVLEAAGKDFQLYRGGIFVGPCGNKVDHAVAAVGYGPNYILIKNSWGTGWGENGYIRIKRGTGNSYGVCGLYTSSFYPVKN
Assay: Inhibition of papain
readout kind: IC50

With Papain (Carica papaya, UniProt P00784) as the test system, "NC(=O)c1ccc2c(c1)C(=O)C(=O)N2Cc1ccc2ccccc2c1" showed IC50 of 11 µM

====

Target: Chymotrypsinogen B (Homo sapiens)
Sequence (P17538 34-164 limits assumed, other chains not shown): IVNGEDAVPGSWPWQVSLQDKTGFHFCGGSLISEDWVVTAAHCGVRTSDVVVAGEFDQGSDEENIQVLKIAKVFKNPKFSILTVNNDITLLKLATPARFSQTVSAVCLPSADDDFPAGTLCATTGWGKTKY
Sequence (P17538 167-263 limits assumed, other chains not shown): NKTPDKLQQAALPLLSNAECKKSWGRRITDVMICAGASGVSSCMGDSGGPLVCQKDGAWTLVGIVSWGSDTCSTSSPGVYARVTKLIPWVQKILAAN
readout kind: IC50 (µM)
Write it as a number; the unit µM goes unstated.

Value (IC50, Chymotrypsinogen B (Homo sapiens)) for record "NC(=O)c1ccc2c(c1)C(=O)C(=O)N2Cc1ccc2ccccc2c1" = 34
